- Read-out: UDP glucuronosyltransferase (UGT1A6), UGT1A6 (gene 54578)
- PROTOCOL_SUMMARY: LTEA_HepaRG_UGT1A6: Life Technologies and Expression Analysis (LTEA) Assay for UDP glucuronosyltransferase (UGT1A6) using HepaRG (AID 2283539)
- CONDITION_DESCRIPTION: mRNA level, 48 h; actives raise or lower the signal
Activity calls are given as the source filed them. How the source made its calls: active means hit-call score of the fitted dose curve at least 0.9, where 1 is the maximum; inactive means score below 0.9.
Labels: active, inactive

| COMPOUND | CLASS_LABEL |
| --- | --- |
| C[C@@H]1C[C@@H]([C@H](O)CC2CC(=O)NC(=O)C2)C(=O)[C@@H](C)C1 | active |
| CCC(C)(C)c1ccc(O)c(C(C)(C)CC)c1 | inactive |
| O=[N+]([O-])c1ccc(O)c([N+](=O)[O-])c1 | active |
| O=C(Nc1ccc2[nH]ccc2c1)c1cc2cc(F)ccc2n1Cc1cccc(F)c1 | active |
| CC(C)(C)CC(C)(C)c1ccc(O)cc1 | inactive |
| NC(=O)O | inactive |
| CCOP(=S)(OCC)Oc1nc(Cl)c(Cl)cc1Cl | inactive |
| CCOP(=S)(OCC)SCSP(=S)(OCC)OCC | inactive |
| O=C(O)C(F)(F)C(F)(F)C(F)(F)C(F)(F)C(F)(F)C(F)(F)F | inactive |
| ClCC(Cl)CCl | inactive |
| O=c1[nH]c(=O)[nH]c(=O)[nH]1 | inactive |
| ClC1(Cl)C2(Cl)C3(Cl)C4(Cl)C(Cl)(Cl)C5(Cl)C3(Cl)C1(Cl)C5(Cl)C24Cl (configuration not stated) | inactive |

---

- EXPERIMENTAL_TARGET: AR (gene 367) (UniProt P10275)
- Sequence (P10275 whole entry, looked up): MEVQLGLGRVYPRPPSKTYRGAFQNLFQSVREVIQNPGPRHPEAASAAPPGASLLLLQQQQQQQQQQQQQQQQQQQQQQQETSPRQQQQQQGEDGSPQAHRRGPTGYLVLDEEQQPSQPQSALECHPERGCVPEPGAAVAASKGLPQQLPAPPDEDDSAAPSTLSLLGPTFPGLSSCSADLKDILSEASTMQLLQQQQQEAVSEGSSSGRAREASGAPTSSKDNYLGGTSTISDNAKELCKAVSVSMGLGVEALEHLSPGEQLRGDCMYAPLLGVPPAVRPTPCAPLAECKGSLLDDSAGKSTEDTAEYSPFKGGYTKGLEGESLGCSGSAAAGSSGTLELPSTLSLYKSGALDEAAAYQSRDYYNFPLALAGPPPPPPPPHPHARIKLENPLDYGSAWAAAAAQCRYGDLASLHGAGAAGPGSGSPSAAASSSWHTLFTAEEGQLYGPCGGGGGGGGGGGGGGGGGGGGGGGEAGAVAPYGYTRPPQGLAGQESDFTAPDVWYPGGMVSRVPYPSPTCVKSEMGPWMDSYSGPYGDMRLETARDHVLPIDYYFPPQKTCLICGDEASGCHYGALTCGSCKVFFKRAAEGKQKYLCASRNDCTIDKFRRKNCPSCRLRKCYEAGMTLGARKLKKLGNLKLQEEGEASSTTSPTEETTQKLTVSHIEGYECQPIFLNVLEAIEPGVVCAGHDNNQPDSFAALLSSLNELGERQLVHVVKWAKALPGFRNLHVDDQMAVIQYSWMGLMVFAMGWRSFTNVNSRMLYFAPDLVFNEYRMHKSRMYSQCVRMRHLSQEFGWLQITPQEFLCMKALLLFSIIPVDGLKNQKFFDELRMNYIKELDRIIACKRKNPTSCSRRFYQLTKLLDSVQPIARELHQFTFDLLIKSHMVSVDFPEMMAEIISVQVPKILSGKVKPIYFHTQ
- PROTOCOL_SUMMARY: ACEA_AR_antagonist_80hr: ACEA Biosciences xCELLigence Real-Time Cell Analysis on Androgen Receptor Antagonism for Proliferation (AID 2283787);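 further: 22Rv1 human prostate cancer cells with growth followed by electrical impedance; hits lower the impedance growth signal relative to DMSO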
Results filed as inconclusive are left out. Activity calls are given as the source filed them. How the source made its calls: active means hit-call score of the fitted dose curve at least 0.9, where 1 is the maximum; inconclusive means response in the unintended direction; inactive means score below 0.9.

| CHEM_SMILES | AC50 |
| --- | --- |
| C[C@H]1CCCC(=O)CCC/C=C/c2cc(O)cc(O)c2C(=O)O1 | 13.9 µM (active) |
| CC(C)c1cccc(C(C)C)c1O | inactive |
| COP(=S)(OC)Oc1ccc(Sc2ccc(OP(=S)(OC)OC)cc2)cc1 | inactive |
| c1cc[c]([Hg][c]2ccccc2)cc1 | 21.9 µM (active) |

---

- PROTOCOL_SUMMARY: CCTE_Padilla_ZF_144hpf_TERATOSCORE: (Legacy) CCTE's 144 Hour Post-fertilization zebrafish Assay Teratoscore, Padilla Lab (AID 2283679)
Activity calls are given as the source filed them. The calls were made as follows: active = hit-call score of the fitted dose curve at least 0.9, where 1 is the maximum; inactive = score below 0.9.
Labels: active, inactive

| CHEM_SMILES | CLASS_LABEL |
| --- | --- |
| CC(=O)[O][Hg][c]1ccccc1 | active |
| CCOP(=S)(OCC)SCSP(=S)(OCC)OCC | active |
| ClCC(Cl)CCl | inactive |
| Cn1sc(Cl)cc1=O | active |
| NC(=O)O | inactive |
| Oc1cccc2cccnc12 | active |
| CC(C)(C)c1cc(O)ccc1O | active |
| O=C(O)C(Cl)(Cl)Cl | inactive |
| C=C(C)C(=O)[O][Sn]([CH2]CCC)([CH2]CCC)[CH2]CCC | active |
| CN(C)N=O | inactive |

---

- PROTOCOL_SUMMARY: ATG_XTT_Cytotoxicity_XSP2: Cytotoxicity Assessment in the Attagene TRANS-FACTORIAL Multi-Species (XSP2) HepG2 Assay (AID 2283837)
Records with an inconclusive call do not appear. Activity calls are given as the source filed them. Rule for the calls: active = hit-call score of the fitted dose curve at least 0.9, where 1 is the maximum; inconclusive = response in the unintended direction; inactive = score below 0.9.
Labels: yes (1) (active), no (0) (inactive)

| COMPOUND | CLASS_LABEL |
| --- | --- |
| CC(C)C1CCC(Cc2ccc(Cl)cc2)C1(O)Cn1cncn1 (stereo not given) | yes (1) |
| Clc1ccc(C2(Cn3cncn3)CC(Br)CO2)c(Cl)c1 (stereo not given) | no (0) |
| Oc1ccc(-c2ccccc2)cc1 | no (0) |
| O=S(=O)(c1ccc(Cl)cc1)c1ccc(Cl)cc1 | no (0) |
| C[C@H]1CCCC(=O)CCC/C=C/c2cc(O)cc(O)c2C(=O)O1 | no (0) |

---

- Read-out: Human Leukocyte Antigen - DR isotype (HLADR), HLA-DRA (gene 3122)
- PROTOCOL_SUMMARY: BSK_CASM3C_HLADR: BioMAP Diversity Plus: CASM3C Assay for Human Leukocyte Antigen - DR isotype (HLADR) Biomarker Activity (AID 2283043);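 further: cell-surface HLA-DR protein level quantified by ELISA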
- CONDITION_DESCRIPTION: primary human coronary artery smooth muscle cells; actives raise or lower the signal
Active and inactive are the calls of the source. The calls were made as follows: active = hit-call score of the fitted dose curve at least 0.9, where 1 is the maximum; inactive = score below 0.9.
Labels: active, inactive

| MOLECULE | CLASS_LABEL |
| --- | --- |
| COP(=S)(OC)Oc1cc(Cl)c(Cl)cc1Cl | active |
| COP(=S)(OC)Oc1ccc(Sc2ccc(OP(=S)(OC)OC)cc2)cc1 | inactive |
| CC(C)(C)CC(C)(C)c1ccc(O)cc1 | active |
| ClCC(Cl)CCl | inactive |
| CCOP(=S)(OCC)SCSP(=S)(OCC)OCC | inactive |
| COC(=O)Cc1ccccc1 | inactive |
| COP(=S)(OC)Oc1c(Cl)cc(C)cc1Cl | inactive |
| COP(=S)(OC)Oc1ccc(S(=O)(=O)N(C)C)cc1 | inactive |
| CCN1CCC2(CC1)COc1cc3c(cc12)N(C(=O)c1ccc(-c2ccc(-c4nnc(C)o4)cc2C)cc1)CC3 | active |
| CC(C)(OO)c1ccccc1 | inactive |
| NC(=O)O | inactive |
| CC(=O)C(Cl)C(=O)N(C)C (stereo not drawn) | active |
| O=[N+]([O-])c1ccc2c3c(cccc13)CC2 | inactive |
| CC(C)(c1ccccc1)c1ccc(O)c(C(C)(C)c2ccccc2)c1 | active |
| CCOP(=S)(OCC)Oc1ccc(S(C)=O)cc1 (stereo not drawn) | inactive |
| CCSC(C)CC1CC(=O)C(C(CC)=NOC/C=C/Cl)=C(O)C1 (stereo not drawn) | inactive |
| Nc1cccc2ccccc12 | inactive |
| C[C@]12CCC(=O)C[C@@H]1CC[C@@H]1[C@@H]2CC[C@]2(C)[C@@H](O)CC[C@@H]12 | inactive |
| Oc1cccc2cccnc12 | active |
| CC(=O)OC(c1ccccc1)C(Cl)(Cl)Cl (stereo not drawn) | inactive |
| C=CC(=O)OCCCCCC(C)C | inactive |
| CCOP(=S)(OCC)Oc1nc(Cl)c(Cl)cc1Cl | inactive |
| COC[C@H](C)N(C(=O)CCl)c1c(C)csc1C | inactive |
| CCC(=O)C(CC(C)N(C)C)(c1ccccc1)c1ccccc1 (stereo not drawn) | inactive |
| CC(C)(C)c1cc(O)ccc1O | active |
| O=Cc1cccc(Oc2ccccc2)c1 | inactive |
| O=C(O)C(Cl)(Cl)Cl | inactive |
| CCOC(=O)/C=C(C)/C=C/C[C@@H](C)CCCC(C)C | active |

---

- Read-out: Apoptosis regulator Bcl-2 (Homo sapiens) (UniProt P10415)
- Sequence (P10415 whole entry, looked up): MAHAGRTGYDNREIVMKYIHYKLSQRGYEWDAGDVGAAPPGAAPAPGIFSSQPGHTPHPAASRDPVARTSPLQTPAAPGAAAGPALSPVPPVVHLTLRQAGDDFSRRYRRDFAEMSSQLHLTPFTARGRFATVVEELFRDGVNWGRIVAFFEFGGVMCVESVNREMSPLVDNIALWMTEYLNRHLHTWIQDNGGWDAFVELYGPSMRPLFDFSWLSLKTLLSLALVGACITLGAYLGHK
- PROTOCOL_SUMMARY: LTEA_HepaRG_BCL2: Life Technologies and Expression Analysis (LTEA) Assay for Bcl-2 gene using HepaRG (AID 2283475);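 further: BCL2 transcript by TaqMan qRT-PCR normalised to ACTB GAPDH and POLR2A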
- CONDITION_DESCRIPTION: mRNA level, 48 h; actives raise or lower the signal
Active and inactive are the calls of the source. Rule for the calls: active = hit-call score of the fitted dose curve at least 0.9, where 1 is the maximum; inactive = score below 0.9.
Labels: active, inactive

| COMPOUND | CLASS_LABEL |
| --- | --- |
| CC(C)(C)c1cc(O)ccc1O | inactive |
| C=CC(=O)OCCCCCC(C)C | inactive |
| O=C(O)C(F)(F)C(F)(F)C(F)(F)C(F)(F)C(F)(F)C(F)(F)F | inactive |
| CCOP(=S)(OCC)Oc1nc(Cl)c(Cl)cc1Cl | inactive |
| C=C(C)C(=O)[O][Sn]([CH2]CCC)([CH2]CCC)[CH2]CCC | active |
| CC(C)(OO)c1ccccc1 | inactive |
| COc1cc(-c2ccc(N)c(OC)c2)ccc1N | inactive |
| NC(=O)O | inactive |
| ClCC(Cl)CCl | inactive |
| ClC1(Cl)C2(Cl)C3(Cl)C4(Cl)C(Cl)(Cl)C5(Cl)C3(Cl)C1(Cl)C5(Cl)C24Cl (stereo unspecified) | inactive |
| CN(C)N=O | inactive |
| O=C(O)C(Cl)(Cl)Cl | inactive |
| CC(C)(C)CC(C)(C)c1ccc(O)cc1 | inactive |
| CCOP(=S)(OCC)SCSP(=S)(OCC)OCC | inactive |
| O=[N+]([O-])c1ccc(O)c([N+](=O)[O-])c1 | active |
| CCN1CCC2(CC1)COc1cc3c(cc12)N(C(=O)c1ccc(-c2ccc(-c4nnc(C)o4)cc2C)cc1)CC3 | inactive |
| CCC(=O)C(CC(C)N(C)C)(c1ccccc1)c1ccccc1 (stereo unspecified) | inactive |
| O=C(Nc1ccc2[nH]ccc2c1)c1cc2cc(F)ccc2n1Cc1cccc(F)c1 | active |
| Cc1ccccc1N | inactive |
| Oc1cccc2cccnc12 | inactive |
| O=C1C2(Cl)C3(Cl)C4(Cl)C(Cl)(Cl)C5(Cl)C3(Cl)C1(Cl)C5(Cl)C24Cl (stereo unspecified) | active |
| CCC(C)(C)c1ccc(O)c(C(C)(C)CC)c1 | inactive |
| CCCCCCCCc1ccc(O)cc1 | inactive |
| CC(C)(c1ccccc1)c1ccc(O)c(C(C)(C)c2ccccc2)c1 | active |
| CC(=O)[O][Hg][c]1ccccc1 | inactive |
| O=c1[nH]c(=O)[nH]c(=O)[nH]1 | inactive |
